Exercise: state measured Papp B→A at 30 min, 10 μM for each of the compounds provided.
# ASSAY_NAME: Passage on the culture model of the blood-brain barrier (bidirectional permeability)
# Type: in vitro ADME, rat
# ASSAY_SETUP: rat, 10 μM; BA (from brain to blood) direction; sampling at 30 minutes; single replicates
// return numeric value only (unit: ×10⁻⁶ cm/s, not printed)

// returns reported Papp B→A at 30 min, 10 μM for input Cl.O=C(O)c1nc2ccccc2c(O)c1CN1CCOCC1
2.5

Same lookup for CN(C)CCNC(=O)c1nc2ccccc2c(O)c1CN1CCOCC1 , please.
20.1

Now consider CN(C)CCNC(=O)c1cc(O)c2ccccc2n1.Cl [comparative 24/2, reference compound] .
7.6

Next compound up: Cl.O=C(NCCN1CCCC1)c1cc(O)c2ccccc2n1 [comparative 24/1, reference compound]
8.3

Thanks! And O=C(NCCN1CCCC1)c1nc2ccccc2c(O)c1CN1CCOCC1 ?
22.3

FYI, the data here is from patent US10870633B2.
